Test system: MDCK
ASSAY SUMMARY: Cytotoxicity against MDCK cells
Assay type: cell-based, Canis lupus familiaris
EXPERIMENTAL SETUP: dog
# key: entry, value: MTC

Worked cases, answers included:
CN1CC(C23CC4CC(CC(C4)C2)C3)N(C)C1=O (centres undefined): 1007 µM
CN1CC(=O)NCC1C12CC3CC(CC(C3)C1)C2 (centres undefined): > 1007 µM

Which MTC reading was recorded for the compound O=C1CNC(C23CC4CC(CC(C4)C2)C3)CN1 (centres undefined) ?
> 1067 µM

Which MTC reading was recorded for the compound C1CNC(C23CC4CC(CC(C4)C2)C3)C1.Cl (centres undefined) ?
1035 µM

Which MTC reading was recorded for the compound CNC(CN)C12CC3CC(CC(C3)C1)C2.O=C(O)/C=C\C(=O)O (centres undefined) ?
> 568 µM

Which MTC reading was recorded for the compound CN1CCNCC1C12CC3CC(CC(C3)C1)C2.O=C(O)/C=C\C(=O)O (centres undefined) ?
> 535 µM

Which MTC reading was recorded for the compound C1CCC(C23CC4CC(CC(C4)C2)C3)NC1.Cl (centres undefined) ?
978 µM

Which MTC reading was recorded for the compound CN1C(=O)NCC1C12CC3CC(CC(C3)C1)C2 (centres undefined) ?
> 1067 µM

Which MTC reading was recorded for the compound C1CNC(C23CC4CC(CC(C4)C2)C3)CN1.O=C(O)/C=C\C(=O)O (centres undefined) ?
> 553 µM

---

Tested on: MDCK
ASSAY SUMMARY: Cytotoxicity against MDCK cells
Format: cell-based, Canis lupus familiaris
EXPERIMENTAL SETUP: dog
# key: entry, value: MTC

CC(N)C12CC3CC(CC(C3)C1)C2.Cl (stereo not given) [RIMANTADINE HYDROCHLORIDE]: > 1160 µM
NCC(N)C12CC3CC(CC(C3)C1)C2.O=C(O)/C=C\C(=O)O (stereo not given): > 586 µM
CN1CCN(C)C(C23CC4CC(CC(C4)C2)C3)C1.O=C(O)/C=C\C(=O)O (stereo not given): > 520 µM

Which MTC reading was recorded for the molecule O=C1NCC(C23CC4CC(CC(C4)C2)C3)N1 (stereo not given) ?
> 1135 µM

Which MTC reading was recorded for the molecule Cl.NC12CC3CC(CC(C3)C1)C2 [AMANTADINE HYDROCHLORIDE] ?
> 1333 µM
